Data credit: ChEMBL document CHEMBL1201862

Reported GI50 values are given for each entry in this list.
System: SNB-75
Test: NCI tumour cell line growth inhibition, 48 h
Activity calls are given as the source filed them. No stated cut-off is given here; in the data, active = GI50 up to about 1.1 µM and inactive = higher.

Previously resolved entries follow.
INSERT INTO results (compound, result) VALUES
  ('COc1ccccc1/C=C1\CCC(CNc2ccc(Cl)cc2)C1=O (stereo unspecified)', '15 µM (inactive)'),
  ('CN(/N=N/c1[nH]cnc1C(N)=O)C1CCCCC1', '34.6 µM (inactive)'),
  ('CC(C)=NNc1cnnc2ccc([N+](=O)[O-])cc12', '58.9 µM (inactive)'),
  ('Nc1cc(O)c2c(c1O)C(=O)C=CC2=O', '30.7 µM (inactive)'),
  ('COC(C)(C)[C@@H](O)[C@H]1C[C@H](C)[C@@]2(CC[C@]3(C)[C@@H]2CC[C@@H]2[C@@]4(C)CC[C@@H](OC(C)=O)C(C)(C)[C@@H]4C[C@@H](OC4OC(COC(C)=O)C(O)C(O)C4O)[C@]23C)O1 (stereo partly specified)', '4.46 µM (inactive)'),
  ('N#CC(C#N)=C/C=C(\Sc1c(Cl)c(Cl)nc(Cl)c1Cl)c1ccc(Cl)cc1', '20.1 µM (inactive)'),
  ('O=[N+]([O-])c1ccc(/C=C(/c2ccc([N+](=O)[O-])o2)S(=O)(=O)c2ccccc2)o1', '19 µM (inactive)'),
  ('NC1CC2C3CCC2C1C3=O (stereo unspecified)', '4.76 µM (inactive)'),
  ('N#Cc1c(/C=C/c2ccccc2)c2c([nH]c1=S)CCCCC2', '> 100 µM (inactive)'),
  ('CCC(=O)/C(=C\I)c1ccccc1', '1.52 µM (inactive)');

With those in mind, consider the next compound.
Give SNB-75 GI50 for the following compound: C=C1C(=O)C2(C)OC2(C)C1C(=O)O (stereo unspecified)
> 100 µM (inactive)

----------
Test system: SF-295
Assay: NCI tumour cell line growth inhibition, 48 h
Active and inactive are the calls of the source. Cut-off read from the data, not from the text of the source: active = GI50 up to about 1.1 µM and inactive = higher.
Response enum: active, inactive

INSERT INTO results (molecule, class) VALUES
  ('O=C(NC/C=C/CO)c1ccccc1', 'inactive');

Could you please tell me the result logged for `C=CCOC(=O)CCCCCCCCCCCCCCCOC(=O)C1=C(CCC[C@@H](C)O[Si](C)(C)C(C)(C)C)NC(=O)N2[C@H](CC3(CC/C=C\[C@H](CC)O[Si](C(C)C)(C(C)C)C(C)C)OCCO3)CC[C@H]12` in this assay?
inactive

Could you please tell me the result logged for `CCN(CC)CSc1nc2ccccc2o1` in this assay?
inactive

Could you please tell me the result logged for CCCCS(=O)(=O)CCC(N)P(=O)(O)O (centres undefined) in this assay?
inactive

Could you please tell me the result logged for CC1(C)CC[C@]2(C(=O)O)CC[C@]3(C)C(=CC[C@@H]4[C@@]5(C)CC[C@H](OC6OC(CO)C(O)C(O)C6OC6OC(CO)C(O)C(O)C6O)C(C)(C)[C@@H]5CC[C@]43C)[C@@H]2C1 (some centres undefined) in this assay?
inactive

Could you please tell me the result logged for CC1=C(C(=O)OC23CC4CC(CC(C4)C2)C3)C(c2ccccc2OC(F)F)C(C(=O)OC23CC4CC(CC(C4)C2)C3)=C(C)N1 (centres undefined) in this assay?
inactive

----------
System: HOP-18
Test: NCI tumour cell line growth inhibition, 48 h
Calls of active or inactive are those of the source. Cut-off read from the data, not from the text of the source: active = GI50 up to about 1.1 µM and inactive = higher.
Response enum: active, inactive

Here's what some known entries look like.
INSERT INTO assay_data (compound, class) VALUES
  ('CCC1=C(C)/C(=C/c2[nH]c(CBr)c(CC)c2C)N=C1CBr', 'inactive'),
  ('O=c1c2ccc3cccc4c(=O)cc(c5ccccc15)-c2c34', 'inactive');

Could you please tell me the result logged for `C/C(=N\NS(=O)(=O)c1ccc(C)cc1)c1c(O)cc(C)oc1=O` in this assay?
inactive

Could you please tell me the result logged for `CCC/C(=N\NC(=S)N1CC2CCC(CC2)C1)c1ccccn1` in this assay?
active

Could you please tell me the result logged for COc1cccc(/C=C2\CCC(C)(CN(C)C)C2=O)c1 (stereo not given) in this assay?
inactive

----------
Tested on: RPMI-8226
Experiment: NCI tumour cell line growth inhibition, 48 h
Active and inactive are the calls of the source. Rule as the data show it: active = GI50 up to about 1.1 µM and inactive = higher.
Response enum: active, inactive

INSERT INTO assay_data (compound, tested_system, class) VALUES
  ('[N-]=[N+]=NCC(=O)c1cnc(O)nc1O', 'RPMI-8226', 'inactive'),
  ('C[C@@H](CC(O)C1OC1(C)C)[C@@H]1CC[C@]2(C)C3=CCC4C(C)(C)C(O)CC[C@]4(C)C3CCC12C (stereo partly drawn)', 'RPMI-8226', 'inactive'),
  ('N#CCc1cccc(CC#N)c1Br', 'RPMI-8226', 'inactive'),
  ('O=c1cc(/N=N/c2ccc(O)cc2)[nH]c(=O)[nH]1', 'RPMI-8226', 'inactive'),
  ('CN(C)c1ccccc1CN1CCCN(Cc2ccccc2N(C)C)C1c1ccncc1', 'RPMI-8226', 'inactive'),
  ('NC1=NC(c2ccc(Cl)cc2)N(c2ccc(S(N)(=O)=O)cc2)C(N)=N1 (stereo not drawn)', 'RPMI-8226', 'inactive');

Could you please tell me the result logged for COc1cccc(C2CC(C)(O)Oc3cc4c(cc32)OCO4)c1 (stereo not drawn) in this assay?
inactive

Could you please tell me the result logged for `C=CC1(c2ccc(OC)cc2)OCCCO1` in this assay?
inactive

Could you please tell me the result logged for `COc1cc(-c2nc(SC)nc3c2CCc2ccccc2-3)cc(OC)c1OC` in this assay?
inactive

Could you please tell me the result logged for `COc1cc(C)c2c(c1)CN1CN2Cc2cc(OC)cc(C)c21` in this assay?
inactive

Could you please tell me the result logged for CN(C)/C=N/c1nc2c(ncn2C2OC(CO)C(O)C2O)c(=O)[nH]1 (stereo not drawn) in this assay?
inactive

Could you please tell me the result logged for `O=C1C(=O)N(c2ccc(Cl)c(Cl)c2)C(=O)C(=O)C1c1nc2ccccc2s1` in this assay?
inactive

Could you please tell me the result logged for CC(C)=CCc1c2c(c3occ(-c4ccc(O)c(O)c4)c(=O)c3c1O)C=CC(C)(C)O2 [POMIFERIN] in this assay?
inactive

Could you please tell me the result logged for `CN(C)CCC(/C=C/c1ccccc1)=N\Nc1ccccc1` in this assay?
active

Could you please tell me the result logged for `CC(=O)C(=C(c1ccccc1)c1ccccc1)c1ccccc1` in this assay?
inactive

Could you please tell me the result logged for `C[Si](C)(C)[C@@]1([Se]c2ccccc2)CC[C@@H]1C(=O)c1ccccc1` in this assay?
inactive

Could you please tell me the result logged for `COC1=CC(=O)c2nc3ccccc3c3ccnc1c23` in this assay?
inactive

Could you please tell me the result logged for CCCCCC1CC=CC(=O)O1 (stereo not drawn) in this assay?
inactive

----------
Test system: SK-MEL-2
Test: NCI tumour cell line growth inhibition, 48 h
Calls of active or inactive are those of the source. Rule as the data show it: active = GI50 up to about 1.1 µM and inactive = higher.
measurement label: GI50

Give the reported GI50 for this compound. CC(C)Cc1ccc(C(C)/C=C2\CCC(CN3CCOCC3)C2=O)cc1 (centres undefined)
16.6 µM (inactive)

Give the reported GI50 for this compound. COC(=O)C1(C(=O)OC)N=C(C)OC1c1ccoc1 (centres undefined)
> 100 µM (inactive)

Give the reported GI50 for this compound. `Cc1nc2c(=O)n(C)c(=O)nc-2n(-c2ccc(Cl)cc2)c1C`
> 100 µM (inactive)

Give the reported GI50 for this compound. `CCNCCCCNCCCCNCCCCNCCCCNCC`
48.1 µM (inactive)

Give the reported GI50 for this compound. O=C1O[C@H]2[C@@H]3OC(=O)c4cc(O)c(O)c(O)c4-c4c(cc(O)c(O)c4O)C(=O)OC[C@H]2O[C@@H](OC(=O)c2cc(O)c(O)c(O)c2)[C@@H]3OC(=O)c2cc(O)c(O)c3c2[C@@H]2C1=CC(=O)C(O)(O)C2(O)O3 (some centres undefined)
29.9 µM (inactive)

Give the reported GI50 for this compound. COC12C=CC(CC1)C1C(=O)c3c(C)c(C)n(C)c3C(=O)C12 (centres undefined)
> 100 µM (inactive)

Give the reported GI50 for this compound. `COc1ccc([C@@]2(O)c3c(ccc(O)c3OC)[C@H]2OC)c(OC)c1`
63.4 µM (inactive)

Give the reported GI50 for this compound. `COc1cc(O)c2c(=O)c(OC)c(-c3ccc(OC)c(O)c3)oc2c1`
> 100 µM (inactive)

Give the reported GI50 for this compound. `C(=N\c1cnc2ccccc2c1)/c1ccc2ccccc2n1`
> 100 µM (inactive)

Give the reported GI50 for this compound. `Cc1nc(N)c(-c2ccccc2)s1`
32.3 µM (inactive)

Give the reported GI50 for this compound. `Cc1cc2c(cc1C)[n+]([O-])c(C(F)(F)F)c(C(=O)c1ccccc1)[n+]2[O-]`
4.89 µM (inactive)

Give the reported GI50 for this compound. `CCOC(=O)c1cc(Sc2ccc(N)c(C(=O)OCC)c2)ccc1N`
> 100 µM (inactive)

Give the reported GI50 for this compound. `C/C(=N\Nc1nnc(S)n1N)c1c(O)cc(C)oc1=O`
> 100 µM (inactive)

Give the reported GI50 for this compound. CN(C)/C=N/c1nc2c(ncn2C2OC(CO)C(O)C2O)c(=O)[nH]1 (centres undefined)
> 100 µM (inactive)

Give the reported GI50 for this compound. CC1=C(C(=O)OC23CC4CC(CC(C4)C2)C3)C(c2ccccc2OC(F)F)C(C(=O)OC23CC4CC(CC(C4)C2)C3)=C(C)N1 (centres undefined)
> 100 µM (inactive)

Give the reported GI50 for this compound. `N#Cc1c([N+](=O)[O-])cc(C(F)(F)F)cc1[N+](=O)[O-]`
18.5 µM (inactive)

Give the reported GI50 for this compound. `O=C1C(=O)N(c2ccc(Cl)c(Cl)c2)C(=O)C(=O)C1c1nc2ccccc2s1`
> 100 µM (inactive)

Give the reported GI50 for this compound. `C(CCc1nnc2c(n1)CCCC2)Cc1nnc2c(n1)CCCC2`
> 100 µM (inactive)

Give the reported GI50 for this compound. `O=C1C=CC(=O)c2c(O)c(N3CCN(c4ccccn4)CC3)cc(O)c21`
5.92 µM (inactive)
